Molecular target: Putative glycosyltransferase (Escherichia coli O55:H7) (UniProt B1B4J9)
Sequence (B1B4J9 as listed by the source): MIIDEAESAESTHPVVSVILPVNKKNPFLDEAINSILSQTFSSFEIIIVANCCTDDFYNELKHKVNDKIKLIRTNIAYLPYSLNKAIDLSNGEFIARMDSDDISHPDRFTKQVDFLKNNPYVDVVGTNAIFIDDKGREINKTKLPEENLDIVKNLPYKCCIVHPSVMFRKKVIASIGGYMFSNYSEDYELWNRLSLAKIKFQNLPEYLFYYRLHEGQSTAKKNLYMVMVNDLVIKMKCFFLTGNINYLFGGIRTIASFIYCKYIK
Experiment: Activity of Escherichia coli O55:H7 glycosyltransferase WbgO relative to GlcNAc
property_measured: Activity (%)

CC(=O)N[C@@H]1[C@@H](O)[C@@H](O)[C@@H](CO)O[C@H]1O 43
CC(=O)N[C@@H]1[C@@H](O)[C@H](O)[C@@H](CO)O[C@H]1O 100

[I] CC(=O)N[C@H]1[C@H](Oc2ccc([N+](=O)[O-])cc2)O[C@H](CO)[C@@H](O)[C@@H]1O
[II] CC(=O)N[C@H]1[C@H](O[C@H]2[C@@H](O)[C@@H](CO)O[C@@H](O[C@H]3[C@H](O)[C@@H](O)[C@H](O)O[C@@H]3CO)[C@@H]2O)O[C@H](CO)[C@H](O)[C@@H]1O
Ask: Please indicate which has the smaller reported Activity: I , or II . Answer by stating the label of the chosen item.
Reply: II
(II: 16%, I: 73%)

Cited source: ChEMBL document CHEMBL1152506
